Source: ChEMBL document CHEMBL1201862

Test system: A498
METHOD_NOTES: NCI tumour cell line growth inhibition, 48 h
The source made the active and inactive calls. No stated cut-off is given here; in the data, active = GI50 up to about 1.1 µM and inactive = higher.
Classes used: active, inactive

[
  {
    "COMPOUND": "COC(=O)[C@]1(C)CCC[C@]2(C)C3CC4OOC3(C=C4C(C)(C)O)CCC21 (stereo partly specified)",
    "ASSIGNED_CLASS": "inactive"
  },
  {
    "COMPOUND": "CSc1cc(Cl)c(C)cc1S(=O)(=O)NC(=O)NNc1ccc(F)cc1",
    "ASSIGNED_CLASS": "inactive"
  },
  {
    "COMPOUND": "CCC(=O)OC1CCn2c1nc1c2C(=O)C(C)=C(NC(C)=O)C1=N (stereo unspecified)",
    "ASSIGNED_CLASS": "inactive"
  },
  {
    "COMPOUND": "CCO/C=N\\C1=C(C#N)SC2=N/C(=C\\c3ccc(OC)cc3)C(=O)N21",
    "ASSIGNED_CLASS": "inactive"
  },
  {
    "COMPOUND": "COC1(OC)C[C@H](C)[C@@]23O[C@]24c2cc(O)c5c(c2N[C@H]3C#C/C=C\\C#C[C@]14O)C(=O)c1ccccc1C5=O",
    "ASSIGNED_CLASS": "active"
  },
  {
    "COMPOUND": "CCN(CC)CCN(C)CC(C)(C)C(=O)/C=C/c1ccccc1",
    "ASSIGNED_CLASS": "inactive"
  },
  {
    "COMPOUND": "O=C(O)c1cc2c(cc1CC(Cc1ccc3c(c1)CCCC3)C(=O)O)CCCC2 (stereo unspecified)",
    "ASSIGNED_CLASS": "inactive"
  },
  {
    "COMPOUND": "Cc1cc(C)c(S(=O)(=O)N2CCCN(S(=O)(=O)c3c(C)cc(C)cc3C)OCCCO2)c(C)c1",
    "ASSIGNED_CLASS": "inactive"
  },
  {
    "COMPOUND": "CCCCN(CCCC)c1c([N+](=O)[O-])c(=O)nc2ccccn12",
    "ASSIGNED_CLASS": "inactive"
  },
  {
    "COMPOUND": "O=C1OCC2C1C1c3ccccc3C(O)c3ccccc3C21 (stereo unspecified)",
    "ASSIGNED_CLASS": "inactive"
  },
  {
    "COMPOUND": "COC(=O)C(Cc1c(C2Nc3ccccc3C2CC(NC(C)=O)C(=O)OC)[nH]c2ccccc12)NC(C)=O (stereo unspecified)",
    "ASSIGNED_CLASS": "inactive"
  }
]

----------
Listed compounds paired with reported GI50
System: COLO 205
METHOD_NOTES: NCI tumour cell line growth inhibition, 48 h
Active and inactive are the calls of the source. Cut-off read from the data, not from the text of the source: active = GI50 up to about 1.1 µM and inactive = higher.
EXPERIMENTAL_READOUT: GI50

[
  {
    "COMPOUND": "COC(=O)c1ccccc1CC1Cc2ccc3c(c2C1=O)CCCC3 (stereo unspecified)",
    "REPORTED_MEASUREMENT": "34 µM (inactive)"
  },
  {
    "COMPOUND": "CCOC(=O)NC(=O)c1c[nH]c(=O)[nH]c1=O",
    "REPORTED_MEASUREMENT": "> 100 µM (inactive)"
  },
  {
    "COMPOUND": "Cc1cccc(C)c1NC(=O)CCC/C(CC(=O)c1ccc(F)cc1)=N\\NC(=O)C(=O)NN",
    "REPORTED_MEASUREMENT": "> 100 µM (inactive)"
  },
  {
    "COMPOUND": "CCOC(=O)/C(C#N)=C(O)/C(=C\\c1ccc(Br)cc1)NC(=O)c1ccccc1",
    "REPORTED_MEASUREMENT": "> 100 µM (inactive)"
  },
  {
    "COMPOUND": "Nc1nnc(NC(=O)C2=NS(=O)(=O)c3cc(S(N)(=O)=O)c(Cl)cc3N2)[nH]1",
    "REPORTED_MEASUREMENT": "> 100 µM (inactive)"
  },
  {
    "COMPOUND": "O=C1CC(c2ccc(O)cc2)C2(O1)C(=O)OC(C(O)CO)C2O (stereo unspecified)",
    "REPORTED_MEASUREMENT": "> 100 µM (inactive)"
  },
  {
    "COMPOUND": "Nc1ccc(CCN2CCN(CCCc3ccccc3)CC2)cc1",
    "REPORTED_MEASUREMENT": "27.7 µM (inactive)"
  },
  {
    "COMPOUND": "CN(C)c1n/c(=N/Cc2ccccc2)ss1",
    "REPORTED_MEASUREMENT": "> 10 µM (inactive)"
  },
  {
    "COMPOUND": "O=C(/C=C/c1ccccc1)CCN1CCN(CCC(=O)/C=C/c2ccccc2)CC1",
    "REPORTED_MEASUREMENT": "16.4 µM (inactive)"
  },
  {
    "COMPOUND": "COc1ccc(C2NC(=O)Nc3c2c(=O)oc2c3ccc3ccccc32)cc1 (stereo unspecified)",
    "REPORTED_MEASUREMENT": "> 100 µM (inactive)"
  },
  {
    "COMPOUND": "Cc1ccc2c(c1)CC1(Cc3ccccc3C1=O)C2=O (stereo unspecified)",
    "REPORTED_MEASUREMENT": "> 100 µM (inactive)"
  }
]
